Tested on: DU-145
run description: NCI growth inhibition and cytotoxicity screen, Prostate Cancer panel
study conditions: Homo sapiens, DU-145, read-out: LC50
Give CC50 for every item shown.

Task: Item COc1cc(OC)cc(/C(C#N)=C/c2cnc3ccccc3c2)c1 has what recorded CC50?
Output: > 100 µM

Task: // CC50 lookup, key: COc1cc(/C(C#N)=C/c2cnc3ccccc3c2)cc(OC)c1OC
Output: > 100 µM

Task: For the molecule shown here, COc1cc(/C=C/c2nc3ccccc3s2)cc(OC)c1OC , give the reported CC50.
Output: > 100 µM

* * *

Assignment: determine reported log10(GI50) for the given compounds.
The figures below represent log10 of GI50, where GI50 is stated in nM.

Task: Give the reported log10(GI50) for COc1cc(/C(C#N)=C/c2ccc3ccccc3n2)cc(OC)c1OC [PNR-4-90] (system: HCC-2998).
Output: 2.79

Task: Give HCC-2998 log10(GI50) for COc1cc(/C=C/c2nc3ccccc3s2)cc(OC)c1OC [Formula (I)(d)]
Output: 0.35

Task: Look up log10(GI50) with HCC-2998 for this compound: COc1cc(/C(C#N)=C\c2cc3ccccc3s2)cc(OC)c1OC [Formula (I)(a)]
Output: 1.28

Task: Query for HCC-2998: what log10(GI50) does the record show for COc1cc(OC)cc(/C(C#N)=C/c2cnc3ccccc3c2)c1 [PNR-4-85] ?
Output: 3.16

Task: Which log10(GI50) is reported with HCC-2998 for this entry: COc1cc(OC)cc(/C(C#N)=C/c2ccc3ccccc3n2)c1 [PNR-4-84] ?
Output: 3.15

Task: // fetch HCC-2998 log10(GI50) for COc1cc(/C=C/c2cc3ccccc3o2)cc(OC)c1OC [Formula (I)(c)]
Output: 0.52

Task: Form field: log10(GI50) recorded for COc1cc(/C(C#N)=C/c2cnc3ccccc3c2)cc(OC)c1OC [PNR-5-10] with HCC-2998 (enter value)
Output: 3.30

* * *

Measurement record for K-562; quantity recorded: log10 GI50.
Units before log transform: nM; reported quantity: GI50; transform: log10.

Task: Name the reported log10 GI50 value associated with the compound COc1cc(OC)cc(/C(C#N)=C/c2ccc3ccccc3n2)c1 [PNR-4-84]
Output: 2.55

Task: Requested read-out: log10 GI50. Entry: COc1cc(/C(C#N)=C/c2ccc3ccccc3n2)cc(OC)c1OC [PNR-4-90]
Output: 1.90

Task: Find the recorded log10 GI50 belonging to COc1cc(/C=C/c2nc3ccccc3s2)cc(OC)c1OC [Formula (I)(d)] and report it.
Output: -1.39

Task: What value of log10 GI50 has been reported for the following compound? COc1cc(/C(C#N)=C/c2cnc3ccccc3c2)cc(OC)c1OC [PNR-5-10]
Output: 2.65

Task: Returns the measured log10 GI50 for the input compound. Input: COc1cc(OC)cc(/C(C#N)=C/c2c[nH]c3ccccc23)c1 [Formula (I)(b)]
Output: 1.64

Task: Value lookup for log10 GI50; key = COc1cc(OC)cc(/C(C#N)=C/c2cnc3ccccc3c2)c1 [PNR-4-85]
Output: 2.39

* * *

System: full panel of 60 different cancer cell lines
run description: NCI five dose screen, full panel summary
Assay type: cell-based, human
study conditions: share of the cancer cell lines potently inhibited
measured quantity: potent growth inhibition on % of the cancer cell lines
Returns: string containing the numeric result and its unit.

Task: If you can, please state the reported potent growth inhibition on % of the cancer cell lines value of COc1cc(/C(C#N)=C/c2cnc3ccccc3c2)cc(OC)c1OC [PNR-5-10] .
Output: 47%

Task: Which potent growth inhibition on % of the cancer cell lines is reported for this compound? COc1cc(/C(C#N)=C/c2ccc3ccccc3n2)cc(OC)c1OC [PNR-4-90]
Output: 91%

Task: Query: potent growth inhibition on % of the cancer cell lines; subject: COc1cc(OC)cc(/C(C#N)=C/c2ccc3ccccc3n2)c1 [PNR-4-84]
Output: 86%

Task: What does the data say about its potent growth inhibition on % of the cancer cell lines? Entry: COc1cc(OC)cc(/C(C#N)=C/c2cnc3ccccc3c2)c1 [PNR-4-85]
Output: 81%
